Where these numbers come from: PubChem BioAssay (NCI)

Listing of recorded TGI by entry.
tested on: SN12C renal; test: NCI tumour cell line growth inhibition, 48 h

Below, 5 compounds whose answers are already recorded.
>>> print(df.to_string())
                                   compound  endpoint_label    result
0  Cc1ccc(S(=O)(=O)Nn2c(O)c(C#N)c(-c3ccc(N(C)C)cc3)c(C#N)c2=O)cc1             TGI   > 50 µM
1                c1cc(NC2=NCCO2)c2c(c1)OCO2             TGI  > 100 µM
2  O=S(=O)(O)C(Cc1nc2ccccc2[nH]1)S(=O)(=O)OCCC1S(=O)(=O)OCCOS1(=O)=O (configuration not stated)             TGI  > 100 µM
3  O=C(O)C1=NN(c2ccc(S(=O)(=O)O)cc2)C2(C1)SCC(=O)N2c1nc2ccccc2s1 (configuration not stated)             TGI  > 100 µM
4  O=C(OCc1ccccc1)N1CCCc2c(n(S(=O)(=O)c3ccccc3)c3ccccc23)C1             TGI  > 100 µM

Recorded result, COc1cc(Nc2nc3cc(C(F)(F)F)ccc3nc2C)cc(OC)c1OC , TGI: 23 µM

The recorded TGI for Oc1c(I)cc(I)cc1CN(Cc1ccccn1)Cc1ccccn1 is 33.6 µM

The measured TGI associated with Cc1cc(=O)[nH]c(NNC(C#N)c2ccco2)n1 (configuration not stated) reads > 100 µM

###

Items are presented alongside their recorded TGI.
system: LOX IMVI melanoma; test: NCI tumour cell line growth inhibition, 48 h

MOLECULE	ASSAYED TARGET	TGI
COc1ccc2nc3ccccc3c(NCc3ccc(C)cc3)c2c1	LOX IMVI melanoma	2.95 µM
O=C(/C=C/c1ccc2c(c1)OCO2)CC(=O)/C=C/c1ccc2c(c1)OCO2	LOX IMVI melanoma	> 100 µM
O=S(=O)(CCCCl)SCCCCl	LOX IMVI melanoma	40.6 µM
Clc1ccc2c(NCCNc3nc(N4CCCC4)nc4ccccc34)ccnc2c1	LOX IMVI melanoma	2.34 µM
CC(CN)[C@@H]1CC[C@]2(CO)CC[C@]3(C)[C@H](CC[C@@H]4[C@@]5(C)CCC(N)C(C)(C)[C@@H]5CC[C@]43C)[C@@H]12 (stereo not given in full)	LOX IMVI melanoma	3.33 µM
Cc1ccc(N2C(=O)C(Cl)=C(Cl)C2=O)cc1	LOX IMVI melanoma	55.5 µM
Cn1nc2ccccc2cc1=O	LOX IMVI melanoma	> 100 µM
C=CCSSc1ncnc2c1ncn2C1OC(CO)C(O)C1O (stereo not given)	LOX IMVI melanoma	> 78.6 µM

Next item in the queue.
Let me check: Oc1c(I)cc(I)cc1CN(Cc1ccccn1)Cc1ccccn1 , system LOX IMVI melanoma, measured TGI is > 33.8 µM

###

tested on: OVCAR-3 ovarian; assay: NCI tumour cell line growth inhibition, 48 h
This section presents compounds with their documented TGI values.

// worked examples, TGI included
>>> df
                                   compound  endpoint_label    result
0       COc1ccc(C)cc1Nc1nnc(-c2ccc(N)cc2)s1             TGI  > 100 µM
1  COc1ccc(C2C3=C(COC3=O)Oc3cc4c(cc32)OCO4)cc1 (configuration not stated)             TGI   41.3 µM
2  O=S(=O)(Nc1ccccn1)c1ccc(N=Nc2ccc(O)c3ncccc23)cc1             TGI   11.4 µM

The value of TGI measured for the compound Cc1ccc(N2C(=O)C(Cl)=C(Cl)C2=O)cc1 turned out to be 30.5 µM

The reported TGI of the compound O=[N+]([O-])c1ccc(C(=Nc2ccccc2)SSC(=Nc2ccccc2)c2ccc([N+](=O)[O-])o2)o1 was 3.38 µM
